# System: Enterococcus faecalis
# protocol text: Antimicrobial activity Streptococcus faecalis ATCC 9790 by MTT assay
# Assay type: functional
reported property: MIC

Q: Bench note: what MIC did Brc1ccc(/C=N/Nc2nc(-c3ccccc3)cs2)cc1 show?
Ans: 1.56 µg/mL

Continuing:
Q: If you can, please state the reported MIC value of Oc1ccc(Br)cc1/C=N/Nc1nc(-c2ccccc2)cs1 .
Ans: 12.5 µg/mL

Q: Would you kindly share the measured MIC for Clc1ccc(/C=N/Nc2nc(-c3ccc(Cl)c(Cl)c3)cs2)cc1 ?
Ans: 25 µg/mL

Q: Reported MIC, compound Fc1ccc(/C=N/Nc2nc(-c3ccc(Cl)c(Cl)c3)cs2)cc1 : ____
Ans: 6.25 µg/mL

Q: Need MIC, item COc1ccc(/C=N/Nc2nc(-c3ccccc3)cs2)cc1
Ans: > 50 µg/mL

Q: Report MIC for Fc1ccc(/C=N/Nc2nc(-c3ccccc3)cs2)cc1 please.
Ans: > 50 µg/mL

Q: Any idea what MIC was measured for Cc1ccc(/C=N/Nc2nc(-c3ccc(Cl)cc3)cs2)cc1 ?
Ans: 12.5 µg/mL

Q: What value of MIC has been reported for the following compound? Oc1c(Cl)cc(Cl)cc1/C=N/Nc1nc(-c2ccccc2)cs1
Ans: 25 µg/mL
